# Tested on: OVCAR-3 ovarian
# PROTOCOL: NCI tumour cell line growth inhibition, 48 h
Quick reference: GI50 of the listed items.

>>> print(df.to_string())
                                   molecule     result
0         ClCc1ccccc1Cn1cnc2c(Cl)nc(Cl)nc21     547 nM
1  O=C(Cc1n[nH]c(=O)c2ccccc12)OCc1c(Cl)cccc1Cl   41900 nM
2   O=C(Nc1ncc(Cc2ccccc2)s1)c1sc2ccccc2c1Cl     523 nM
3  COc1cc(Nc2ccnc(NCCNc3ccnc4cc(Cl)ccc34)n2)cc(OC)c1    1890 nM
4              Cc1ccc(S(=O)(=O)c2ccccc2)cc1    2320 nM
5  CCC[CH2][Sn]1([CH2]CCC)[O]CC(CN2CCCCC2)[O]1 (stereo unspecified)     271 nM
6               OCCCCC#Cc1ccccc1C#Cc1ccccn1   26100 nM
7  COc1cc(-c2nccn2-c2ccc3ccccc3c2)cc(OC)c1OC  < 17.6 nM

Measured GI50, NC(N)=NN=C(c1ccccc1)c1ccccc1 : 2150 nM

// field: GI50; key: C=CCN1C(=O)c2cccc3c(N4CCOCC4)ccc(c23)C1=O ; value = 11.8 nM

Record O=C(c1ccco1)c1nc2ccc(Cl)cc2[n+]([O-])c1C(F)(F)F . Reported GI50: > 100000 nM

* * *

# Tested on: SF-539 CNS
# PROTOCOL: NCI tumour cell line growth inhibition, 48 h; in the data active means GI50 below about 0.43 µM; inactive means the rest
Field 'call' accepts T = active, F = inactive

Some entries whose results are on file:
>>> print(df.to_string())
                           molecular_string  label_value
0  O=C1/C(=C/c2ccccc2)CN(C(=O)CCN2CCC(=NO)CC2)C/C1=C\c1ccccc1            F
1  CC[C@H](C)[C@H](NC(=O)c1ccccn1)C(=O)N(C)[C@H](C[C@@H](OC(C)=O)c1nc(C(=O)N[C@@H](Cc2ccccc2)C[C@H](C)C(=O)OC)cs1)C(C)C            F
2         ClCc1ccccc1Cn1cnc2c(Cl)nc(Cl)nc21            T

Could you now look at the following compound, please?
What was the test verdict on C=CC(=O)N1CCN(CCCn2c(=O)c(-c3c(Cl)c(OC)cc(OC)c3Cl)cc3cnc(NC)nc32)CC1 ?
F

* * *

Entries and their TGI
# System: IGROV1 ovarian
# PROTOCOL: NCI tumour cell line growth inhibition, 48 h

# annotated cases, reported TGI shown
                                   compound     result
0               OCCCCC#Cc1ccccc1C#Cc1ccccn1   > 100 µM
1  CCCC[C@H](NC(=O)[C@H]1CCCCN1C)C(=O)N(C)[C@H](C[C@@H](OC(C)=O)c1nc(C(=O)N[C@@H](Cc2ccccc2)C[C@H](C)C(=O)OCC)cs1)C(C)C  > 33.3 µM
2  C[CH2][Sn]([CH2]C)([O]C(=O)c1ccccc1F)[O]C(=O)c1ccccc1F   > 100 µM
3  COc1cccc2[nH]c3c4c(c5c(c3c12)C(=O)N(CN1CCN(C)CC1)C5=O)CCC4  > 46.1 µM
4  NC1=NC(=O)[C@H](Cc2c[nH]c3ccccc23)N1C(=O)OCc1ccccc1   > 100 µM

// TGI value for COc1ccc(/C=C2\N=C(N/N=C\C(O)C(O)C(O)C(O)CO)NC2=O)cc1 (centres undefined) : > 100 µM

Record O=C(/C=C/c1ccc2ccccc2c1)NCc1ccc(C(=O)NCc2ccccc2)cc1 . Reported TGI: > 100 µM

compound COc1ccc2c(c1)n([O-])c1cc(C#N)ccc1[n+]2=O , TGI observed: 26.8 µM

// TGI value for CCOC(=O)CCc1cccc2c1oc1c(CCNC(=O)OCC3c4ccccc4-c4ccccc43)cccc12 : > 100 µM
